- system-tested: T1, human-CD40 monomer (human, UniProt P25942 21-193, limits assumed)
- T1 construct: also called hCD40-monomer; human-CD40-monomer protein
- T1 sequence (P25942 21-193 limits assumed): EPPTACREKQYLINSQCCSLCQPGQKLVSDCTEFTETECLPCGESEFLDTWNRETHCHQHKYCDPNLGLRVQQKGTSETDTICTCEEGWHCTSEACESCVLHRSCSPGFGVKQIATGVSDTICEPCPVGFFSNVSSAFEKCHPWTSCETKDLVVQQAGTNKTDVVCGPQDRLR
- measurement-description: SPR 2 pt screen, Ab on protein A
I'd be grateful if you could share measured Kd for these entries.
Numbers only, in nM.

binder: humanized Y1238 hz26 (hz-HC6 / hz-LC1), IgG1.3f (antibody, V domains shown, IgG1.3f heavy constant, common CL; expression supernatant; also called Sup 26) VH: QVQLVQSGAEVKKPGASVKVSCKASGYAFTNYLIEWVRQRPGQGLEWMGVINPGSGGTNYNEKFKGRVTLTADKSISTAYMELSRLRSDDTAVYYCARSQLGRRFDYWGQGTLVTVSS VL: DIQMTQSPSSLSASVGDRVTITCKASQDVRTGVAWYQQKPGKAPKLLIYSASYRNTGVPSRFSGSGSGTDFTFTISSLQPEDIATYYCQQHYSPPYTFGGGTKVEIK
unit-abbrev: nM
data-value: 2.9

Return reported Kd values for all items listed beneath this line.
1. humanized Y1238 hz34 (hz-HC7 / hz-LC4), IgG1.3f (antibody, V domains shown, IgG1.3f heavy constant, common CL; expression supernatant; also called Sup 34) VH: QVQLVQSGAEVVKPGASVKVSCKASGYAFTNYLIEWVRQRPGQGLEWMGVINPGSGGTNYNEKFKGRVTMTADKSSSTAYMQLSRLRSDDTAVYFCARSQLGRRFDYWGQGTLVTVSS VL: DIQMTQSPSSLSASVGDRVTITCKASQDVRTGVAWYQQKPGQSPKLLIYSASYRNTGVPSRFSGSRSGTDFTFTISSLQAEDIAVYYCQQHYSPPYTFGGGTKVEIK
2. humanized Y1238 hz4 (hz-HC1 / hz-LC4), IgG1.3f (antibody, V domains shown, IgG1.3f heavy constant, common CL; expression supernatant; also called Sup 4) VH: QVQLVQSGAEVKKPGASVKVSCKASGYAFTNYLIEWVRQAPGQGLEWMGVINPGSGGTNYNEKFKGRVTMTRDTSISTAYMELSRLRSDDTAVYYCARSQLGRRFDYWGQGTLVTVSS VL: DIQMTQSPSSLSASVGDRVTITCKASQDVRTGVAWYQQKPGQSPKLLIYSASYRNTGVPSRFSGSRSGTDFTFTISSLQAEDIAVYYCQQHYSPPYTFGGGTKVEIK

a:
[7.1, 8.9]

Batch of 2 binders: report Kd for each.
1. humanized Y1238 hz49 (hz-HC10 / hz-LC4), IgG1.3f (antibody, V domains shown, IgG1.3f heavy constant, common CL; expression supernatant; also called Sup 49) VH: QVQLVQSGAEVKKPGASVKVSCKASGYAFTNYLIEWVRQRPGQGLEWMGVINPGSGGTNYNEKFKGRVTMTRDKSISTAYMELSRLRSDDTAVYYCARSQLGRRFDYWGQGTLVTVSS VL: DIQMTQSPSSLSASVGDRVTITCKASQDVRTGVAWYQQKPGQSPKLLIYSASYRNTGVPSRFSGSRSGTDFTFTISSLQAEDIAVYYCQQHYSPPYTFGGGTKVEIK
2. humanized Y1238 hz16 (hz-HC4 / hz-LC1), IgG1.3f (antibody, V domains shown, IgG1.3f heavy constant, common CL; expression supernatant; also called Sup 16) VH: QVQLVQSGAEVKKPGASVKVSCKASGYAFTNYLIEWVRQAPGQGLEWMGVINPGSGGTNYNEKFKGRVTMTADKSISTAYMELSRLRSDDTAVYYCARSQLGRRFDYWGQGTLVTVSS VL: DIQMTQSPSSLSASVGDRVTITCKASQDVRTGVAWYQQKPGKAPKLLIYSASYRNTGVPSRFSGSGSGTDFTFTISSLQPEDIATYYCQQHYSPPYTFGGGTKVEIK

a:
12
2.7
